- Assay remarks: Cytotoxicity against human T-cell lymphoblast cell line (CEM)
- Assay type: cell-based
- Study conditions: human; CEM cells, 4 days incubation; read-out: cytotoxicity ID50
- Method: Compounds B and C were tested for cytotoxicity against leukemia L1210 cells up to a concentration of 2×10^-3 according to the method described in Bobek and Bloch, J. Med. Chem., 20, 458, 1977. […]
Result type: CC50 at 96 h

Asked: Which CC50 at 96 h is listed for CCc1cn([C@H]2C[C@H](O)[C@@H](CO)O2)c(=O)c[n+]1[O-] [Compound C] ?
Given back: > 400 µM

Every entry's value here was drawn from patent US5192764A.
